src = patent EP4768499A1

- experiment: Metabolic stability test: liver microsomal stability assay
- Format: in vitro ADME, mouse
- measurementSetup: mouse liver microsomes 0.5 mg protein/mL, compound 1 µM, absence of NADPH
- Protocol: Under the presence and absence of NADPH, a microsome solution prepared to a concentration of 0.5 mg protein/mL using 100 mM phosphate buffer (pH 7.4) with mouse liver microsomes (male, Corning Incorporated, USA) and the compound at a concentration of 1 µM were subjected to a metabolic reaction for 22 minutes, 44 minutes, or 66 minutes. […]
Starred links: 1 amine or outer side, 2 acyl side, 3 side chain; linkers in the order of their positions; H or OH if unused. Positions of bridges follow the written chain, without caps; N, C: chain ends. Non-standard residues stand in square brackets, D forms with d. Residues, ends and D or L forms follow the SMILES beside them. *: point of attachment. NMedβ3hAla = C[C@H](CC(=O)[*:2])N(C)[*:1]; NMeF = CN[C@@H](Cc1ccccc1)C(=O)O; NMeGABA = CN(CCCC(=O)[*:2])[*:1]; hPhe = N[C@@H](CCc1ccccc1)C(=O)O; NMeβAla = CN(CCC(=O)[*:2])[*:1]; NMeL = CN[C@@H](CC(C)C)C(=O)O; NMeV = CN[C@H](C(=O)O)C(C)C; d(β3hA) = C[C@@H](N)CC(=O)O; NMeAbu = CC[C@H](NC)C(=O)O; NMeA = CN[C@@H](C)C(=O)O; Piperidide = C1CCN(*)CC1; Abu = CC[C@H](N)C(=O)O; tBu = CC(C)(C)*
Here, each record is paired with measured Mouse Hepatic Microsome CLh,int NADPH(-) data.
Kindly answer with a numeric value in µL/min/mg Protein, unit omitted.

compound	Mouse Hepatic Microsome CLh,int NADPH(-) (µL/min/mg Protein)
CC[C@H](C)[C@@H]1NC(=O)[C@H](C)NC(=O)[C@H](CC(C)C)N(C)C(=O)[C@H](COC(C)(C)C)NC(=O)[C@H](CC(C)C)N(C)C(=O)[C@@H]2CCCN2C(=O)[C@H](Cc2ccccc2)NC(=O)CCN(C)C(=O)[C@H](CC(C)C)N(C)C(=O)CCCN(C)C(=O)C[C@@H](C(=O)N2CCCCC2)NC(=O)[C@H](Cc2ccccc2)N(C)C(=O)[C@H](CC(C)C)NC(=O)[C@H](CC)N(C)C1=O [pd017] ([NMeGABA][NMeL][NMeβAla]FP[NMeL]S(tBu)[NMeL]AI[NMeAbu]L[NMeF]D-Piperidide; lactam N-14)	40.1
CC[C@@H]1NC(=O)[C@H](CC(C)C)N(C)C(=O)[C@H](COC(C)(C)C)NC(=O)[C@H]([C@@H](C)CC)NC(=O)[C@H](Cc2ccccc2)N(C)C(=O)CNC(=O)[C@H]([C@@H](C)CC)NC(=O)[C@H](CC(C)C)N(C)C(=O)CCCN(C)C(=O)C[C@@H](C)N(C)C(=O)[C@H](CC(C)C)NC(=O)[C@H](C)N(C)C(=O)[C@H](Cc2ccccc2)N(C)C(=O)[C@H](C(C)C)NC1=O [pd063] (cyclo([Abu]V[NMeF][NMeA]L[NMedβ3hAla][NMeGABA][NMeL]IG[NMeF]IS(tBu)[NMeL]))	33.7

Please examine the following record next.
-- ask Determine from records and report Mouse Hepatic Microsome CLh,int NADPH(-) for CC[C@H](C)[C@@H]1NC(=O)[C@H](CC(C)C)N(C)C(=O)[C@H](C)N(C)C(=O)[C@H](Cc2ccccc2)N(C)C(=O)[C@@H]2CCCN2C(=O)[C@H](CC(C)C)N(C)C(=O)[C@H](CCc2ccccc2)NC(=O)CCN(C)C(=O)C[C@@H](C)NC(=O)[C@H](CC(C)C)N(C)C(=O)[C@H]([C@@H](C)O)NC(=O)CCN(C)C(=O)[C@H](C(C)C)N(C)C1=O [pd138] (cyclo(I[NMeV][NMeβAla]T[NMeL][d(β3hA)][NMeβAla][hPhe][NMeL]P[NMeF][NMeA][NMeL]))
-- reply 11.1
